Assay Notes: GST conjugation activity with 1,2-epoxy-3-(p-nitrophenoxy)propane (HPLC)
Format: biochemical
Condition Label: 0.4 mM electrophilic substrate, 4 mM glutathione, 0.1 M MOPS pH 7.0, corrected for uncatalyzed reaction
Observed Property: Activity of soybean GST enzyme, 1,2-epoxy-3-(p-nitrophenoxy)propane (nmol/min/mg)
# unit: nmol/min/mg | format: bare number

Exercise: I have this molecule here, ses8w.pk0028.c6: soybean type III GST encoded by cDNA insert in clone ses8w.pk0028.c6 (protein) MAANQEDVKLLGATGSPFVCRVQIALKLKGVQYKFLEENLRNKSELLLKSNPVHKKVPVFIHNEKPIAESLVIVEYIDETWKNNPILPSDPYQRALARFWSKFIDDKVVGAAWKYIYTVDEKEREKNVEESYEALQFLENELKDKKFFGGEEIGLVDIAAVFIAFWIPIIQEVLGLKLFTSEKFPKLYKWSQEFINHPVVKQVLPPRDQLFAFYKACHESLSASK , and I need its recorded Activity of soybean GST enzyme, 1,2-epoxy-3-(p-nitrophenoxy)propane.
Key: 12

These entries and their values trace back to patent US6168954A.
